Taken from patent US20100022483A1.

- protocol.details: Mammalian cytotoxicity assay (resazurin), COS-1 cells
- Format: cell-based
- condition.summary: African green monkey, read-out: Cytotox. COS-1
readout.kind: IC50 at 24 h

Would you please look over these solved cases?
molecule	IC50 at 24 h
COCCNCc1ccoc1-c1ccc(O)c2c1C[C@H]1C[C@H]3[C@H](N(C)C)C(O)=C(C(N)=O)C(=O)[C@@]3(O)C(O)=C1C2=O [BQ]	> 141 µM
CN(C)[C@@H]1C(O)=C(C(N)=O)C(=O)[C@@]2(O)C(O)=C3C(=O)c4c(O)ccc(C(=O)CNCC(C)(C)C)c4C[C@H]3C[C@@H]12 [BP]	> 42.9 µM

Request: Quote IC50 at 24 h reported for CN(C)CCN(C)Cc1ccc(-c2ccc(O)c3c2C[C@H]2C[C@H]4[C@H](N(C)C)C(O)=C(C(N)=O)C(=O)[C@@]4(O)C(O)=C2C3=O)o1 [CZ] please.
Result: > 13.8 µM
